biological target: PRMT5/MEP50 complex (Homo sapiens, UniProt O14744+Q9BQA1); test: Competitive fluorescence polarization assay against a tracer peptide binding to the PRMT5/MEP50 complex; details: competitive FP; 200 nM PRMT5:MEP50 complex, 1 nM tracer peptide 50; 50 mM HEPES, 250 mM NaCl, 1 mM TCEP, 0.01% Tween 20, pH 8.0; 1 hour incubation; ex 485 nm / em 535 nm; four-parameter fit
Sequence (O14744 whole entry, species assumed): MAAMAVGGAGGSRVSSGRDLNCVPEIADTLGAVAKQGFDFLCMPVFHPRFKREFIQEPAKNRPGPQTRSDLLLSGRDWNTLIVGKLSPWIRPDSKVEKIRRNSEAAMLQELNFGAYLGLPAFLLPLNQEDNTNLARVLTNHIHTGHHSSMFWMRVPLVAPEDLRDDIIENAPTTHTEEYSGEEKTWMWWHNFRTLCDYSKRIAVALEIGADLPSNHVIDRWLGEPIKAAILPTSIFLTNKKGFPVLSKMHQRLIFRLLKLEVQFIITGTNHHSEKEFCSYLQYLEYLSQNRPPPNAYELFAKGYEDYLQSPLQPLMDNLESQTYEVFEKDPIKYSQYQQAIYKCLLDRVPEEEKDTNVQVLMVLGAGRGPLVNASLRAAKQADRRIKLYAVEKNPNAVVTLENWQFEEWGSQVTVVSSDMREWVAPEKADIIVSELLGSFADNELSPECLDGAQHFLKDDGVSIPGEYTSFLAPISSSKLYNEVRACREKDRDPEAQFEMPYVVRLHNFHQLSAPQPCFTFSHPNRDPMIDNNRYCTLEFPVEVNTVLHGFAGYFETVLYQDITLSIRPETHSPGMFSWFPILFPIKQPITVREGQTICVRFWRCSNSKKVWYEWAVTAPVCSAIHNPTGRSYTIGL
Sequence (Q9BQA1 whole entry partner, species assumed): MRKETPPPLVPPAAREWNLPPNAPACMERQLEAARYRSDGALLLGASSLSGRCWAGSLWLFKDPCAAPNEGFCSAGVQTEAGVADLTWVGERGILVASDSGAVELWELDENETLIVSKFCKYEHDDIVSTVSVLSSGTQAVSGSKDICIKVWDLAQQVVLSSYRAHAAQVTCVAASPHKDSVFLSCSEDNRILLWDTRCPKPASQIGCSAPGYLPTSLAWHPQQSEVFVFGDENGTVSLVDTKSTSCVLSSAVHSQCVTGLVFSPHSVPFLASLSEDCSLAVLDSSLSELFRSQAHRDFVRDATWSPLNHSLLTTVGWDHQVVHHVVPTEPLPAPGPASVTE
readout-kind: pIC50
pIC50 here is simply -log10 of the concentration when that concentration is written in mol/L.

Exam item: Could you please provide reported pIC50 for Ac-VPGQFDDAD-NH2 [compound 46, reference compound] ? Thanks!
Marked response: 5.77
